# assayed_target: T1, Recombinant CD3epsilon/delta Fc fusion protein (Sino Biological) (human, UniProt P07766 23-126; P04234 22-105)
# T1 construct: Bought reagent; also called recombinant CD3 fusion protein; human CD3 antigen; not shown: Fc of the bought fusion protein; not described
# T1 sequence (P07766 23-126, stated change not applied, chain 1 of 2): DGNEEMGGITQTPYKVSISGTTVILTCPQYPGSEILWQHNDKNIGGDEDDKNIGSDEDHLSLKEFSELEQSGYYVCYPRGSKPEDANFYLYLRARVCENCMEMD
# T1 sequence (P04234 22-105, stated change not applied, chain 2 of 2): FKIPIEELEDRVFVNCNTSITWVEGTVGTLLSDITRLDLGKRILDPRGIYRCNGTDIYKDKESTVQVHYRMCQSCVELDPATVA
# measurement_protocol: SPR (ProteOn XPR36), CD3epsilon/delta Fc fusion captured on anti-Fc chip, variant injected for 240 s; kinetic constants printed above the sensorgrams

[
  {
    "binder": "variant 21829, monovalent anti-CD3 scFv-heterodimeric Fc (VL hC3E-1_1L1d, VH hC3E-1(N53R)) (Fc fusion, scFv order VH-(GGGGS)3-VL on Fc chain A; chain B is Fc only; also called v21829; not shown: Fc-only chain B is also left out) scFv: EVQLVESGGGLVQPGGSLRLSCAASGVTFNYYGMSWIRQAPGKGLEWVASITRSGGRIYYPDSVKGRFTISRENTQKTLYLQMNSLRAEDTAVYYCTLDGRDGWVAYWGQGTLVTVSSGGGGSGGGGSGGGGSQVVLTQPPSASGTPGQRVTISCKRNTGNIGSNYVNWYQQLPGTAPKLLIYRDDKRPDGVPDRFSGSKSGTSASLAISGLQSEDEADYYCQSYSSGFIFGGGTKLTVL",
    "result_units": "s⁻¹",
    "koff": 0.00382
  }
]
